Values from PubChem BioAssay (NCI)

Recorded measurements of growth inhibition, one per entry
test: NCI Yeast Anticancer Drug Screen. Data for the wt2 strain (AID 169);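 note: 0% = growth of vehicle-treated yeast cultures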; details: S. cerevisiae wt2 strain growth inhibition; at 1.2 µM; stronger effect = higher value
About 79,000 compounds went through this panel and 15% of them were active in at least one assay; those are over-represented in the sample as a whole. Active and inactive are the calls of the source. Cut-off read from the data, not from the text of the source: active = growth inhibition above about 70%; inactive = the rest.

The following molecules have reported results that may help.
• Oc1ccc2ccccc2c1C(c1ccc(Cl)cc1)c1c(O)ccc2ccccc12 = -22% (inactive)
• c1ccc2c(c1)sc1nc3ccncc3nc12 = 13% (inactive)
• C[Si](C)(C)CNC(=O)OCc1ccccc1 = -1% (inactive)

Problem: // query growth inhibition value for entry CCc1ncnc2cc(OCC3CO3)c(OC)cc12 (centres undefined)
Solution: -26% (inactive)

###

assay: NCI Yeast Anticancer Drug Screen. Data for the rad14 strain (AID 159);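 note: 0% = growth of vehicle-treated control cultures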; conditions: S. cerevisiae rad14 strain growth inhibition; at 1.2 µM; stronger effect = higher value
Compounds without any hit were thinned out: in the full panel of roughly 79,000, 15% have a hit.
Recorded measurements of growth inhibition, one per entry
Enter your answer as a number in %; do not include the unit.

The following compounds have reported results that may help.
* Cc1ccc(-c2ccc(Nc3c4ccccc4nc4ccccc34)cc2)cn1 | -27
* CCCCCCCCCCNC(=O)OCC | -4
* O=C(N=Nc1ccccc1Cl)NNc1ccccc1Cl | -3
* COc1ccc(/C=C/C(=O)C(C)(C)Br)cc1 | 28
* O=[N+]([O-])c1ccc2c(c1)C(N1CCN(CCO)CC1)Cc1ccc(F)cc1S2 (stereo unspecified) | -2

Problem: // query growth inhibition value for entry O=[N+]([O-])c1cc2no[n+]([O-])c2cc1N1CCCCC1
Solution: -8

###

assay: NCI Yeast Anticancer Drug Screen. Data for the mlh1 strain (AID 171);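 note: 0% = growth of vehicle-treated control cultures of the same strain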; conditions: S. cerevisiae mlh1 strain growth inhibition; at 1.2 µM; stronger effect = higher value
Compounds without any hit were thinned out: in the full panel of roughly 79,000, 15% have a hit.
Recorded measurements of growth inhibition, one per entry
Enter your answer as a number in %; do not include the unit.

The following molecules have reported results that may help.
• CC(C(=O)N1C(=O)N(C(=O)[C@H](C)C(O)c2ccccc2)[C@H](c2ccccc2)[C@H]1c1ccccc1)[C@@H](O)c1ccccc1 (some centres not stated) = -3
• CSC(=S)Nc1cc(C)ccn1 = 0
• NCCNc1ccc(NCCN)c2c1C(=O)c1c(O)ccc(O)c1C2=O = 2

Problem: // query growth inhibition value for entry CN=C(N)N/N=C/c1ccc2c(c1)Cc1ccccc1-2
Solution: -24

Problem: // query growth inhibition value for entry O=C(OCCN1CCCCCC1)C(c1ccsc1)C1CCCCC1 (configuration not stated)
Solution: 8

Problem: // query growth inhibition value for entry CCc1ccc(NS(=O)(=O)c2ccccc2)c([N+](=O)[O-])c1
Solution: 0

Problem: // query growth inhibition value for entry Cn1c2ccccc2c(=O)c2cc(NC(=O)CCCCC(=O)Nc3ccc4c(c3)c(=O)c3ccccc3n4C)ccc21
Solution: 0

Problem: // query growth inhibition value for entry CCC(=O)OCCn1c2nc(=O)[nH]c(=O)c-2nc2cc(C)c(C)cc21
Solution: -11

###

experiment: NCI Yeast Anticancer Drug Screen. Data for the rad50 strain (AID 155);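 note: 0% = growth of vehicle-only cultures of the same strain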; settings: S. cerevisiae rad50 strain growth inhibition; at 33.0 µM; stronger effect = higher value
The panel holds about 79,000 compounds, 15% with a hit somewhere; the sample as a whole holds those more often.
measured.property: growth inhibition (%)
Enter your answer as a number in %; do not include the unit.

The following compounds have reported results that may help.
• Cc1c(C2=C(Br)C(=O)N(C)C2=O)c(=O)n(C)c(=O)n1C = 78
• Cc1c(C(Cc2ccccc2N(C)C(=O)/C=C\C(=O)O)c2c[nH]c3ccccc23)c2ccccc2n1C (configuration not stated) = 8
• CCCCCCCCCCCC1=C(O)C(=O)C=C(O)C1=O = 94
• O=[N+]([O-])c1ccc(=S)[nH]c1 = 28
• BrCC[P+](c1ccccc1)(c1ccccc1)c1ccccc1 = 94
• Cc1ccc2ccc3cccc4ccc1c2c34 = 37

Problem: // query growth inhibition value for entry O=C(Nc1ccc(Cl)cc1)OCC#CCCl
Solution: 15

Problem: // query growth inhibition value for entry c1ccc2c(c1)sc1cc3ccncc3cc12
Solution: 89

Problem: // query growth inhibition value for entry O=[N+]([O-])c1cccc2nc3ccccc3c(NCCCN3CCOCC3)c12
Solution: 97

Problem: // query growth inhibition value for entry O=C(NC(Nc1ccc(F)c(Cl)c1)(C(F)(F)F)C(F)(F)F)C(C(F)(F)F)C(F)(F)F
Solution: 91

Problem: // query growth inhibition value for entry NC(=S)N/N=C\c1nccc2ccccc12
Solution: 97

Problem: // query growth inhibition value for entry CC(CC(C)(C)[N+](C)(C)C)[N+](C)(C)C (configuration not stated)
Solution: 2
